This collection of values is drawn from ChEMBL document CHEMBL3991601.

Activity calls are given as the source filed them.
Observed Kd, system Tyrosine-protein kinase JAK2 (Homo sapiens, UniProt O60674). Note: in the data inactive means no Kd found up to 30 µM.

• Cc1nc2cc(-c3nn(C(C)C)c4ncnc(N)c34)ccc2o1 = > 30 µM (inactive)
• C#Cc1cccc(Nc2ncnc3cc(OC)c(OCCCCCCC(=O)NO)cc23)c1 [CUDC-101] = > 30 µM (inactive)

Item: CN1CCN(CCOc2cc(OC3CCOCC3)c3c(Nc4c(Cl)ccc5c4OCO5)ncnc3c2)CC1 [SARACATINIB] | Kd: > 30 µM (inactive)

###

Target protein (sequence): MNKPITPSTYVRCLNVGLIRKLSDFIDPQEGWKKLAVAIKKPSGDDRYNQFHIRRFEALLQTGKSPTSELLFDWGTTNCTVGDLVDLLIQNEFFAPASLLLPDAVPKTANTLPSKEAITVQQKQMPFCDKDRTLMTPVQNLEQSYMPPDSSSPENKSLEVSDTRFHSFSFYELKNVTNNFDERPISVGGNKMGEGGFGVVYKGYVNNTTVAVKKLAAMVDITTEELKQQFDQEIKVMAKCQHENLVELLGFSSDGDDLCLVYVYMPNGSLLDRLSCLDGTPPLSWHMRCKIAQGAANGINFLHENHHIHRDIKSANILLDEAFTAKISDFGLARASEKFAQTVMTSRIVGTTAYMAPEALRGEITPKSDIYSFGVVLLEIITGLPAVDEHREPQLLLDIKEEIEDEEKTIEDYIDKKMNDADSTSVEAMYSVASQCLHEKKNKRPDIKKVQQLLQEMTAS
Structures can show the parent of a compound that is named as a salt. Calls of active or inactive are those of the source.
Listed here are compounds together with their documented Kd.

Examples from the recorded data:
• C[C@@H](Oc1cc(C(=O)Nc2ccc(C(=O)N3CCN(C)CC3)cc2)nnc1N)c1c(Cl)ccc(F)c1Cl = > 30 µM (inactive)
• FC(F)(F)c1ccc(/C=C/c2nc(COc3ccc(CCCCn4ccnn4)cc3)co2)cc1 = > 30 µM (inactive)
• CCOc1cc2ncc(C#N)c(Nc3ccc(F)c(Cl)c3)c2cc1NC(=O)/C=C/CN(C)C = > 30 µM (inactive)

Item: CCS(=O)(=O)N1CCN(c2ccc(Nc3ncc(C(N)=O)c(NC4CC4)n3)cc2)CC1 [Cerdulatinib Hydrochloride] | Kd: > 30 µM (inactive)

Item: `Nc1ncnc2c1c(-c1cccc(OCc3ccccc3)c1)cn2[C@H]1C[C@@H](CN2CCC2)C1` | Kd: > 30 µM (inactive)

Item: `CCCCCCCCCCCCCCCCCCOP(=O)([O-])OC1CC[N+](C)(C)CC1` | Kd: > 30 µM (inactive)

Item: `CN(C[C@@H]1COCCO1)S(=O)(=O)Nc1ccc2ccc3ncc(-c4cnn(C)c4)cc3c(=O)c2c1` | Kd: 1.47 µM (active)
